test: Rat infusion study: clinical signs and IV plasma pharmacokinetics across infusion lengths; format: in vivo; conditions: male, Sprague-Dawley, rat, plasma, iv, 4 mg/kg, male Sprague-Dawley rats, plasma, 4 mg/kg IV, 2 h infusion; read-out: T½ (h)-alpha (converted)
READOUT: half-life (h)
The reply should be a number in h, with the unit left off.

May I ask what half-life has been recorded for `C[C@H](N)CCCc1cc(Cl)c(F)c(-c2cc3cn(-c4ccc([C@@H]5CCC[C@@H](CCSC(=N)N)N5)cc4)c(=O)nc3[nH]2)c1` ?
1.02

----------
assay: Rat infusion study: clinical signs and IV plasma pharmacokinetics across infusion lengths; type: in vivo; conditions: male, Sprague-Dawley, rat, plasma, iv, 4 mg/kg, male Sprague-Dawley rats, 4 mg/kg IV, 24 h infusion
READOUT: AUC(0-inf) (ng·h/mL)
The reply should be a number in ng·h/mL, with the unit left off.

May I ask what AUC(0-inf) has been recorded for C[C@H](N)CCCc1cc(Cl)c(F)c(-c2cc3cn(-c4ccc([C@@H]5CCC[C@@H](CCSC(=N)N)N5)cc4)c(=O)nc3[nH]2)c1 [Compound 34] ?
11000

These entries and their values trace back to patent US12234238B2.
